The following compounds are shown together with reported Papp values.
Details: pampa; 60.0 min; 50.0 µM
parameter: Papp (×10⁻⁶ cm/s)

- OCCOCCN1CCN(C(c2ccccc2)c2ccc(Cl)cc2)CC1 (stereo not given): 114
- CCOc1cc2ncc(C#N)c(Nc3ccc(F)c(Cl)c3)c2cc1NC(=O)C=CCN(C)C: 256
- Cn1nnnc1Sc1ncnc2scc(-c3ccc(C#N)cc3)c12: 63
- Cc1ccc(=O)n(-c2ccccc2)c1: 14
- Cn1nnnc1Sc1ncnc2scc(-c3cccc(Cl)c3)c12: 134
- CC[C@@H]1CN(C(=O)NCC(F)(F)F)C[C@@H]1c1cnc2cnc3[nH]ccc3n12: 2
- Nc1c(C(=O)Nc2ccc(Cl)c(C(F)(F)F)c2)sc2nc3c(cc12)N1CCC3CC1: 213
- Cc1ccccc1CN1CCn2c(nn(CC3COc4ccccc4O3)c2=O)C1=O (stereo not given): 57.7
- Nc1nc(N)c2c(OCC3CCN(Cc4ccccc4F)CC3)cccc2n1: 12
- O=C(NCC1(N2CCN(c3ccccc3)CC2)CCOCC1)c1cccnc1Sc1ccccc1: 207
- CCOc1ccc(CCNC(=O)c2cc3ccccc3n2Cc2cccc(C)n2)cc1OCC: 271
- N=c1c2c(-c3ccccc3)cn(Cc3ccccc3)c2ncn1CCO: 113
- N=c1c2c(-c3ccccc3)c(-c3ccccc3)n(Cc3ccccc3)c2ncn1CCCCCO: 203
- CC(=CCCC1=CCC(C2=CC(=O)OC2O)OC1O)CCC1=C(C)CCCC1(C)C (stereo not given): 9.8

###

Conditions: pampa; 60.0 min; 50.0 µM
Record yes whenever Papp is at 40 ×10⁻⁶ cm/s or higher; record no when lower.

- NC(=O)N1CCC(CC(=O)N2CCC([C@H]3c4ncc(Br)cc4CCc4cc(Cl)cc(Br)c43)CC2)CC1: yes
- COc1ccccc1NC(=O)C1=C(C)Nc2c(C(=O)Nc3cccc(C)c3)cnn2C1c1ccccc1Cl (stereo not given): yes
- CC1=C(/C=C/C(C)=C/C=C/C(C)=C/C(=O)O)C(C)(C)CCC1: no
- O=C(Cc1cccs1)NC1C(=O)N2C(C(=O)[O-])=C(C[n+]3ccccc3)CSC12 (stereo not given): no
- O=C(NCCO)c1cc(C(=O)NCCO)cc(C(=O)NCCO)c1: no
- CCN(CC)CCNc1ccc(C)c2sc3ccccc3c(=O)c12: yes
- CC1CN(c2cc3c(cc2F)c(=O)c(C(=O)O)cn3-c2ccc(F)cc2F)CCN1 (stereo not given): no
- O=C1CCc2ccc(OCCCCN3CCN(c4cccc(Cl)c4Cl)CC3)cc2N1: no
- N#Cc1cccc(-c2nc(-c3cccnc3)no2)c1: yes

###

Conditions: pampa; 60.0 min; 50.0 µM
parameter: Papp

- CC(=O)NC[C@H]1CN(c2ccc(N3CCOCC3)c(F)c2)C(=O)O1: 5 ×10⁻⁶ cm/s
- CC(C)C[C@H]1C(=O)O[C@H](Cc2ccc(N3CCOCC3)cc2)C(=O)N(C)[C@@H](CC(C)C)C(=O)O[C@H](C)C(=O)N(C)[C@@H](CC(C)C)C(=O)O[C@H](Cc2ccc(N3CCOCC3)cc2)C(=O)N(C)[C@@H](CC(C)C)C(=O)O[C@H](C)C(=O)N1C: < 1 ×10⁻⁶ cm/s
- CC(=O)O[C@H]1C[C@@H](C)O[C@H]2O[C@@H]3CC4CC[C@@H]5C(CC[C@]6(C)[C@@H](C7=CC(=O)OC7)CC[C@]56O)[C@@]4(C=O)C[C@H]3O[C@]21O (some centres not stated): 54 ×10⁻⁶ cm/s
- Cc1ncc(COP(=O)(O)O)c(C=O)c1O: < 1 ×10⁻⁶ cm/s
- CN1CCN(C(=O)Cc2c[nH]c3ncc(-c4ccccc4Oc4ccccc4)cc23)CC1: 299 ×10⁻⁶ cm/s
- CCOc1ccc(C2C(C(=O)Nc3ccccc3OC)=C(C)Nc3c(C(=O)Nc4cccc(C)c4)cnn32)cc1 (configuration not stated): 45 ×10⁻⁶ cm/s
- CC(C)[C@]12O[C@H]1[C@@H]1O[C@]13[C@]1(O[C@H]1C[C@H]1C4=C(CC[C@@]13C)C(=O)OC4)[C@@H]2O: < 1 ×10⁻⁶ cm/s
